- TEST_SYSTEM: T1, biotinylated human DLL3 protein expressed as a human IgG1 fusion protein (human, UniProt Q9NYJ7 27-492, limits assumed, biotinylated)
- T1 sequence: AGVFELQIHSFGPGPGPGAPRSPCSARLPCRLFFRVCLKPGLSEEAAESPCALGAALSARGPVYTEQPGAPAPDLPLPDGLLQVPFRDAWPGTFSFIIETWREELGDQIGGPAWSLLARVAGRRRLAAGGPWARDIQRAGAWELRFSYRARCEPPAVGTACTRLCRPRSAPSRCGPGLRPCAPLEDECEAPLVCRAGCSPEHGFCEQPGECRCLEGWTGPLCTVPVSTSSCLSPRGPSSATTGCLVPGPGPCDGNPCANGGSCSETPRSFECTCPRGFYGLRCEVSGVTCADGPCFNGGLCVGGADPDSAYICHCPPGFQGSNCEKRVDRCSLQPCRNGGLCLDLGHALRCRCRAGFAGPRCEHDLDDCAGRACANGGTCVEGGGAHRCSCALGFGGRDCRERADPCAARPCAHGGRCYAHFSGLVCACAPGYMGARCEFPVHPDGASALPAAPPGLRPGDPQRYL
- PROCEDURE_DETAILS: Octet BLI, single 50 nM
Consider the cut-off 10 nM. If the recorded Kd is strictly smaller, the label is rule met; if not, the label is rule not met.

[
  {
    "BINDER": "2C08 anti-DLL3 trispecific protein (other, not shown: linker 1808, anti-albumin sdAb, linker 1808, anti-CD3 fragment, His6 1819) EVQLVESGGGLVQPGGSLTLSCVASGSTSRINAMGWYRRAPGKQRELVAGISSDGSKVYQDSVKGRFTISRDNAKNSVYLQMNSLRAEDTAVYYCYYFRRVSGSSMRYWGQGTLVTVSS",
    "LABEL_CLASS": "rule met"
  },
  {
    "BINDER": "2B05 anti-DLL3 trispecific protein (other, not shown: linker 1808, anti-albumin sdAb, linker 1808, anti-CD3 fragment, His6 1819) EVQLVESGGGLVQPGGSLTLSCVASGTTSSINAMGWYRRAPGKQRELVAGISSDGTKVYADSVKGRFTISRDNAKNSVYLQMNSLRAEDTAVYYCYYFHTVSGSSMRYWGQGTLVTVSS",
    "LABEL_CLASS": "rule met"
  },
  {
    "BINDER": "1F012 anti-DLL3 trispecific protein (other, not shown: linker 1808, anti-albumin sdAb, linker 1808, anti-CD3 fragment, His6 1819) EVQLVESGGGLVQPGGSLTLSCVASGLTSSINAMGWYRRAPGKQRELVAGISSDGSKVYQDSVKGRFTISRDNAKNSVYLQMNSLRAEDTAVYYCYYFRTNSGSSMRYWGQGTLVTVSS",
    "LABEL_CLASS": "rule met"
  },
  {
    "BINDER": "4B04 anti-DLL3 trispecific protein (other, not shown: linker 1808, anti-albumin sdAb, linker 1808, anti-CD3 fragment, His6 1819) EVQLVESGGGLVQPGGSLTLSCAASGSSVLFLSMAWYRQAPGKKRELVAGVSSDGSTDYIDSVKGRFTISRDNAKNSVYLQMNSLRAEDTAVYYCYAYRWRTRYTYWGQGTLVTVSS",
    "LABEL_CLASS": "rule not met"
  },
  {
    "BINDER": "4A08 anti-DLL3 trispecific protein (other, not shown: linker 1808, anti-albumin sdAb, linker 1808, anti-CD3 fragment, His6 1819) EVQLVESGGGLVQPGGSLTLSCAASGSSVSFLSMAWYRQAPGKKRELVAGISADGSTNYIDSVKGRFTISRDNAKNSVYLQMNSLRAEDTAVYYCYAYRWRTRYTYWGQGTLVTVSS",
    "LABEL_CLASS": "rule not met"
  },
  {
    "BINDER": "2G08 anti-DLL3 trispecific protein (other, not shown: linker 1808, anti-albumin sdAb, linker 1808, anti-CD3 fragment, His6 1819) EVQLVESGGGLVQPGGSLTLSCVASGSTSYINAMGWYRRAPGKQRELVAGISSDGSKVYADSVKGRFTISRDNAKNSVYLQMNSLRAEDTAVYYCYYFRTVSGQSMGYWGQGTLVTVSS",
    "LABEL_CLASS": "rule met"
  }
]
